Test system: Saccharomyces cerevisiae;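 also: PSI is a weighted mean of sequencing reads over stability bins, variants kept only with over 10 reads, mCherry proximal and sfGFP distal, peptide attached via GGGS linker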
method: protein stability index of tFT-peptide fusion (C-terminal peptide) (PSI (0-1 scale)); higher = more stable (slower turnover)
runConditions: genetic background: wild type; temperature: 30 C
The following sequences are listed with their measured protein stability index values.

- constructSequence: "AFFLDKASQLES"
  protein stability index: 0.694
- constructSequence: "QPHPPRAVLTGP"
  protein stability index: 0.698
- constructSequence: "KRLKKKRNRAKA"
  protein stability index: 0.683
- constructSequence: "SCIIWPAKGCPF"
  protein stability index: 0.687
- constructSequence: "LISISNINEGVI"
  protein stability index: 0.688
- constructSequence: "WGVGCVRGVWGA"
  protein stability index: 0.714
- constructSequence: "LYPRLAPPTPPS"
  protein stability index: 0.686
- constructSequence: "PSPPPSSPPPRS"
  protein stability index: 0.686
- constructSequence: "PSPPPPPPTTVL"
  protein stability index: 0.718
- constructSequence: "RSPTGSPGRSFS"
  protein stability index: 0.687
- constructSequence: "LFKKVGGRSLVW"
  protein stability index: 0.681
- constructSequence: "FLLPPPFLPLPL"
  protein stability index: 0.691
- constructSequence: "GAGVSELCGAGW"
  protein stability index: 0.713
- constructSequence: "KKTKEQEGEKTE"
  protein stability index: 0.679
- constructSequence: "GACPAFPYSVGR"
  protein stability index: 0.595
- constructSequence: "ETYCLPRVASGI"
  protein stability index: 0.733
- constructSequence: "KIDKNILTNKEN"
  protein stability index: 0.673
- constructSequence: "HPRWTPPTQSAS"
  protein stability index: 0.716
- constructSequence: "SVFERDWTGGEV"
  protein stability index: 0.718
- constructSequence: "VECPWFCLGVLA"
  protein stability index: 0.385
- constructSequence: "MSVRGGEGVVGE"
  protein stability index: 0.614
- constructSequence: "PPPLSPSFIPPP"
  protein stability index: 0.698
- constructSequence: "GVERSLFGRIGV"
  protein stability index: 0.735
- constructSequence: "GGGEKVMVVGHG"
  protein stability index: 0.709
- constructSequence: "GLLDGEILKRRI"
  protein stability index: 0.698
- constructSequence: "LLGGLHIPHPLR"
  protein stability index: 0.681
- constructSequence: "VTSSLHAVPWSR"
  protein stability index: 0.693
- constructSequence: "VGVEIKITKEKK"
  protein stability index: 0.739
- constructSequence: "EEGGVWIRVEAG"
  protein stability index: 0.588
- constructSequence: "KSNTGGGERNKA"
  protein stability index: 0.668
- constructSequence: "PCLPPPLRLPPN"
  protein stability index: 0.631
- constructSequence: "IIQNNNQLKKRR"
  protein stability index: 0.671
- constructSequence: "ALASPAPLPRRD"
  protein stability index: 0.756
- constructSequence: "VSRVDGAGHSAV"
  protein stability index: 0.66
- constructSequence: "ETRKKKLTNSRT"
  protein stability index: 0.622
- constructSequence: "CRGRGGCPMSWR"
  protein stability index: 0.689
- constructSequence: "LVGWVCRERELG"
  protein stability index: 0.718
- constructSequence: "PPSPAPPPASPP"
  protein stability index: 0.651
- constructSequence: "PLIDRKIKKAIQ"
  protein stability index: 0.705
